Biological target: AIP C122 (O00170) (Homo sapiens)
Sequence (O00170 whole entry, the tested form may be a part): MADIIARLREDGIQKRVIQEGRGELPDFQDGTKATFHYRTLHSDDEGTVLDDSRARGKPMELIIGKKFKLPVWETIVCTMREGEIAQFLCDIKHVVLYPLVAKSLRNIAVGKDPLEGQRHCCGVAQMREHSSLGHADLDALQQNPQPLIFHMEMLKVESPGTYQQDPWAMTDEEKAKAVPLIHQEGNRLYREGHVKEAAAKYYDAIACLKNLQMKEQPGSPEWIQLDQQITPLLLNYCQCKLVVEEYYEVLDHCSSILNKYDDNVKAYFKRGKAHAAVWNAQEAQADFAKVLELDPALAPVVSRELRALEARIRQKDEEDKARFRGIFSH
Test: Competitive isoTOP-ABPP, cell lysates;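 also: Heavy/light ratio DMSO over fragment-treated so higher means more cysteine engagement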
Format: binding
Details: 500 μm, in-vitro_ramos
Would you mind telling me the reported isoTOP-ABPP reactivity profile ratio, O00170_C122 of each entry?
Answer using only a numeral; do not append any unit.

# returns recorded isoTOP-ABPP reactivity profile ratio, O00170_C122 (system: AIP C122 (O00170) (Homo sapiens)) for N#CC(=Cc1ccc(-c2ccccc2Cl)o1)C(N)=O [compound 42]
0.8

# returns recorded isoTOP-ABPP reactivity profile ratio, O00170_C122 (system: AIP C122 (O00170) (Homo sapiens)) for O=C(CCl)Nc1ccc(-c2ccccc2)cc1 [compound 52]
1.4

# returns recorded isoTOP-ABPP reactivity profile ratio, O00170_C122 (system: AIP C122 (O00170) (Homo sapiens)) for COc1cc(NC(=O)CCl)cc(OC)c1 [compound 43]
2.1

# returns recorded isoTOP-ABPP reactivity profile ratio, O00170_C122 (system: AIP C122 (O00170) (Homo sapiens)) for C=CC(=O)N1CCC(Cc2ccccc2)CC1 [compound 53]
0.9

* * *

Biological target: cysteines in MDA-MB-231 and Ramos cells (Homo sapiens)
Sequence (P49588 1-968): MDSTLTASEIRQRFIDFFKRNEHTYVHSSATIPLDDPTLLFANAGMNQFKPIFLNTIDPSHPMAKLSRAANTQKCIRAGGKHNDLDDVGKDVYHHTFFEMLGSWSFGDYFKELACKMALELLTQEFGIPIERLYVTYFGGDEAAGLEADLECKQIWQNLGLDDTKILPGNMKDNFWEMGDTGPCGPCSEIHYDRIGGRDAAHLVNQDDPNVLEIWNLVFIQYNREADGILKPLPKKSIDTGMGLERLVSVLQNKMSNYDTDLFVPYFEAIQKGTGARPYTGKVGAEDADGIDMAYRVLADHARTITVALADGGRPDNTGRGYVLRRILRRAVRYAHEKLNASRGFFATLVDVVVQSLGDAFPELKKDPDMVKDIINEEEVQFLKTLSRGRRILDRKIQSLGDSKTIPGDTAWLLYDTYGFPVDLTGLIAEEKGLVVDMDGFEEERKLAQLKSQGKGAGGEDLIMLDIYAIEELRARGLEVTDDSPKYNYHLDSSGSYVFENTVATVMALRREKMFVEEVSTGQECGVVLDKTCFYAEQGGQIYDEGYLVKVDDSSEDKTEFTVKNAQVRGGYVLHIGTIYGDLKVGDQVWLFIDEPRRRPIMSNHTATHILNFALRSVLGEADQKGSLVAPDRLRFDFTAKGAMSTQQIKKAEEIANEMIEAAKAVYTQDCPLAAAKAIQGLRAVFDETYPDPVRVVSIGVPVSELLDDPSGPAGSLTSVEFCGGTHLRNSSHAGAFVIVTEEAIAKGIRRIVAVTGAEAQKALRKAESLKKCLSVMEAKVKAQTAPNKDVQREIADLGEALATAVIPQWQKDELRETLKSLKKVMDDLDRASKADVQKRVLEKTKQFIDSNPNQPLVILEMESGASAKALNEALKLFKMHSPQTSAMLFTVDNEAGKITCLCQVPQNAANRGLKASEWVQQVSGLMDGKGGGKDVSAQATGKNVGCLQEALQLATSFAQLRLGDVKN
Assay: Competitive isoTOP-ABPP in situ (fragment-treated cells)
Assay type: cell-based
Settings: 200 μM, insitu, ramos
Would you mind telling me the reported isoTOP-ABPP ratio P49588_C773 of each entry?

Tell me the measured isoTOP-ABPP ratio P49588_C773 of O=C(CCl)N1CCN(CC(=O)N2CCOCC2)CC1 [compound 29] , please.
1.1

Tell me the measured isoTOP-ABPP ratio P49588_C773 of C=CC(=O)N(Cc1cccnc1)c1cc(C(F)(F)F)cc(C(F)(F)F)c1 [compound 31] , please.
1.2

Tell me the measured isoTOP-ABPP ratio P49588_C773 of O=C(CCl)N1CCN(S(=O)(=O)c2ccccc2F)CC1 [compound 10] , please.
1.7

Tell me the measured isoTOP-ABPP ratio P49588_C773 of O=C(CCl)NCCc1c[nH]c2ccccc12 [compound 13] , please.
1.1

Values were extracted from patent US10670605B2.
